# target_or_test_system: T1, rGyr_hel K106Q (Thermotoga maritima, UniProt O51934 59-541, K106Q)
# T1 sequence: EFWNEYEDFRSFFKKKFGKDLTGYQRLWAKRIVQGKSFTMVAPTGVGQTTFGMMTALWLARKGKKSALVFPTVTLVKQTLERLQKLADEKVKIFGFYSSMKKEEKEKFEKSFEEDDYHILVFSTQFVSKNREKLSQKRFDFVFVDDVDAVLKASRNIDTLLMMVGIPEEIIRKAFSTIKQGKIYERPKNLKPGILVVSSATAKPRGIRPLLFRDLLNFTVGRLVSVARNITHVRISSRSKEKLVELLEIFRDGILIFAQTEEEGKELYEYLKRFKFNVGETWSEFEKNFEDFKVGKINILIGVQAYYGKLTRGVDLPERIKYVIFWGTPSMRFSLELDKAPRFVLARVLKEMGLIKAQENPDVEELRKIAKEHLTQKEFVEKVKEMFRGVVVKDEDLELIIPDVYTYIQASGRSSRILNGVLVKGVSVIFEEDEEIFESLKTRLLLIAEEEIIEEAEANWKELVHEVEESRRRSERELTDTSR
# assay_details: fluorescence anisotropy
measured_parameter: Kd (nM)

>  <binder>
60 bp dsDNA (dsDNA) DNA 1: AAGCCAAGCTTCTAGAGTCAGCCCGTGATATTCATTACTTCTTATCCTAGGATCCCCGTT DNA 2: AACGGGGATCCTAGGATAAGAAGTAATGAATATCACGGGCTGACTCTAGAAGCTTGGCTT

>  <measured_parameter>
Kd

>  <observed>
3800

$$$$
>  <binder>
60-base ssDNA (ssDNA) DNA: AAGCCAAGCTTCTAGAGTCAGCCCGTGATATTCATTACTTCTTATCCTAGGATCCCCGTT

>  <measured_parameter>
Kd

>  <observed>
180

$$$$
